The entries below come with measured growth inhibition values attached.
- procedure_summary: NCI Yeast Anticancer Drug Screen. Data for the mlh1 rad18 strain (AID 175)
- particulars: S. cerevisiae mlh1 rad18 strain growth inhibition, stronger effect = higher value; at 50.0 µM unless noted
Compounds without any hit were thinned out: in the full panel of roughly 79,000, 15% have a hit.
readout_kind: growth inhibition (%)

compound	value_unit	measured_value
Cc1cccc2c(N3CCN(c4ccccc4)CC3)c3c(nc12)CCCCC3	%	-2.7
COc1ccc2nc(C(=O)c3ccccc3)c(C)cc2c1	%	-13.2
NNc1nc(N2CCCCC2)c2[nH]cnc2n1	%	4.95
C/C(=N\NC(N)=O)C1(O)CCCCC1	%	-11
C=C(COc1ccc(OC)cc1)C(C)(C)C	%	-19.5
COc1ccc2oc(=N)c(C(=O)Nc3ccccc3)cc2c1	%	-38.4
O=C(/C=C/c1ccc(-c2ccccc2)cc1)c1ccccc1	%	-17.6
COC(=O)c1c(C)nc(C)c(N=O)c1-c1ccccc1C(F)(F)F	%	-44.6
COc1cc(C(=O)c2cc3c(cc2C(=O)O)OCO3)cc(OC)c1OC	%	-2.05
CCC1CN2CCc3cc(OC)c(OC)cc3C2CC1=O (configuration not stated)	%	-22.1
CCOC(=O)/C(=N/Nc1ccc(Cl)cc1)N1C(=S)C=C(C)NN(C)C1=S	%	8.15
CC1(C)CC[C@]2(C(=O)O)CC[C@]3(C)C(=CC[C@@H]4[C@@]5(C)CC[C@H](O)C(C)(C)[C@@H]5CC[C@]43C)[C@@H]2C1	%	-3.9
CCCCOC(=O)NC(=O)c1cc2cc(Cl)ccc2oc1=O	%	18.8
CSc1ncn(C)c1C(N)=O	%	11.2
CCOC(=O)Cc1nc2ccccc2[nH]1	%	-3.2
CC1CC1C(N)C1CC1C (configuration not stated)	%	8.3
O=C1C(O)=C(O)C(Br)=C/C1=C(/c1ccccc1S(=O)(=O)O)c1cc(Br)c(O)c(O)c1O	%	18.4
CC(C)(C)OC(=O)NCC(=O)OC/C=C/c1ccccc1	%	6.1
COc1cc([C@@H]2c3cc4c(cc3[C@H](OC3OC5COC(c6ccco6)OC5C(O)C3O)C3COC(=O)[C@@H]32)OCO4)cc(OC)c1OC (some centres not stated)	%	-42
CCC1CC(C)=CCN1S(=O)(=O)c1ccc(C)cc1 (configuration not stated)	%	2.35
CC1(C)COC(c2ccc3c(c2)OCO3)N1 (configuration not stated)	%	0.6
CCC(CC)C(=O)NCCNC(=O)C(CC)CC	%	-17.2
OCC1COCO1 (configuration not stated)	%	9.2
CN1CCC/C1=N\C(=Nc1ccccc1)N1CCCC1	%	-9.15
Cc1cccc(NC(=O)c2ccc(Cl)cc2Cl)c1	%	22.2
Cn1nc2ccc3nccc(N4CCN(CCO)CC4)c3c2n1	%	-15
OCC12OCC(C=CC1O)O2 (configuration not stated)	%	-8.5
CC(C)(C)C(=O)OCC1CCC(n2cnc3c(=O)[nH]c(N)nc32)O1 (configuration not stated)	%	25.7
COc1ccc(C)cc1NC(=O)Nc1ccccc1F	%	5.15
CCCC1OC(c2cc3c(cc2Br)OCO3)OCC1CC (configuration not stated)	%	-4.7
Cc1ccc(N2C(=O)C3CSCN3C2=O)cc1 (configuration not stated)	%	6.25
CC(=O)N(CCC(C)C)CCC(C)C	%	-11.2
CC1=NC(C)(C)N(O)C1(C)C	%	-53.5
O=C1OCCOCCOCCOCCOCCOC(=O)c2cccc1n2	%	16.1
COc1ccc(N=N/C(=N/NC(=O)c2cc(Cl)ccc2C(=O)c2ccccc2)c2ccc(N(CCC#N)CCC#N)cc2C)cc1	%	12.8
O=C(OCc1ccccc1CN1CCCCC1)c1cccc(Cl)c1	%	2.3
CCc1cc(N(C)C)ccc1N=Nc1ccc([N+](=O)[O-])cc1	%	28.9

====

The entries below come with measured growth inhibition values attached.
- procedure_summary: NCI Yeast Anticancer Drug Screen. Data for the mec2-1 strain (AID 157)
- particulars: S. cerevisiae mec2-1 strain, stronger effect = higher value; at 50.0 µM unless noted
This is part of a sample that, as a whole, favours compounds with a hit. Of some 79,000 tested, about 15% had one in any assay.

molecule	growth inhibition / %
C(#Cc1ccccc1)CC#Cc1ccccc1	10.2
CC(=O)CC(=O)Nc1ccc(-c2ccc(NC(=O)CC(C)=O)c(Cl)c2)cc1Cl	-27.7
Cc1nn(C(=O)Cc2ccccc2)c2c1C(c1ccc(Cl)cc1)SC(N)=N2 (centres undefined)	-31.5
Cc1ccc2c(c1)P(=O)(O)c1cc(C)ccc1S2	-16.6
CC(C)(CN1CCCCC1)C(=O)CC(SCCN)c1ccc(Cl)cc1 (centres undefined)	0.65
C[N+](C)(C)c1ccc2[nH]c3ccccc3c2c1	-11.2
Cc1ccc(S(=O)(=O)NC(CCC(=O)N2CCOCC2)C(=O)O)cc1 (centres undefined)	-4
CN(C)C(=O)Sc1cccc([N+](=O)[O-])c1	-14.9
CCNc1cc(Cl)c(C(=O)O)cc1[N+](=O)[O-]	20.9
COc1ccc(CCl)cc1OCc1ccccc1	-17.8
COc1ccccc1C(=O)Oc1ccc(OC(=O)c2ccccc2OC)c(C(C)=O)c1	-1.85
CN(C)C1=C(Cl)C(=O)C(=O)c2cccnc21	-2.9
COc1c(OC(C)=O)ccc(/C=C2\N=C(C)OC2=O)c1[N+](=O)[O-]	-4.75
NC(=O)OCCOC(N)=O	1
O=[N+]([O-])c1ccccc1S(=O)(=O)c1cccc2c1NCCC2	12.3
CCCCC(C)(C)SCCC(=O)O	-7.25
CC(C)(Oc1ccc(C(=O)c2ccc(Cl)cc2)cc1Cl)C(=O)N1CCN(c2ccccc2)CC1	-46.1
CCC(C)C(NC(=O)Cc1ccccc1)C(=O)O (centres undefined)	-9.45
CCCCC(C#N)C(=O)NC(N)=O (centres undefined)	3.2
CCOc1ccccc1/C=C1\N=C(c2ccc([N+](=O)[O-])cc2)OC1=O	21.2
COc1cc(CCC(NC(C)=O)c2cccc(O)c(=O)c2)cc(OC)c1OC (centres undefined)	-4.6
ClC1=C(Cl)C(Cl)(Cl)c2c3c(c4c(c21)C(Cl)(Cl)C(Cl)=C4Cl)C(Cl)(Cl)C(Cl)=C3Cl	17.1
COC(=O)CC1CCS(=O)(=O)C1 (centres undefined)	6.35
O=C1C2C3ON(c4ccccc43)C2C(=O)N1c1ccccc1 (centres undefined)	21
O=C1NC(=S)S/C1=C/C=C/c1ccccc1	3.8
CN(C)C(=O)C(c1ccccc1)C(c1ccccc1)N(C)C=O (centres undefined)	-2.2
COC1OC2COc3ccccc3OC2C2C1N2C(N)=O (centres undefined)	0.7
Cc1ccc2[nH]c3c(c2c1)C(=O)CCC3	-2.95
COc1ccc(/C(C)=N/NC(=O)c2ccncc2)cc1OC	-9.9
O=C1/C(=C/c2ccc(Cl)cc2)CCC1CN1CCOCC1 (centres undefined)	92.2
c1ccc2nc3c(cc2c1)c1c(c2ccccc23)CCCC1	-10.5
CCCCCCCCCCCCC	-45.8
C/C(CC1=CCCCC1)=N\NC(N)=O	-17.9
COc1cc(OC)c2c(c1)OC(c1cccnc1)C(c1ccccc1)C2=O (centres undefined)	-57.9

====

- procedure_summary: NCI Yeast Anticancer Drug Screen. Data for the sgs1 mgt1 strain (AID 161);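 note: 0% = growth of cultures given vehicle only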
- particulars: S. cerevisiae sgs1 mgt1 strain, stronger effect = higher value; at 50.0 µM unless noted
- Method: Growth inhibition of yeast strains with defined genetic alterations is measured as a screen for potential anti-cancer activity. Selected strains with alterations in DNA damage repair or cell cycle control were exposed to compounds and growth inhibition was measured relative to vehicle treated controls. The strain used in this assay is sgs1 mgt1
About 79,000 compounds went through this panel and 15% of them were active in at least one assay; those are over-represented in the sample as a whole.

molecule	value_unit	growth inhibition
O=C(O)C(F)(F)C(F)(F)C(F)(F)F	%	-6.75
CN1NC(c2ccccc2)=C(C#N)C(=O)CC1c1ccccc1 (stereo not given)	%	13.1
O=C(COc1ccc(Cl)cc1)N1CCN(C(=O)COc2ccc(Cl)cc2)c2ccccc21	%	23.9
O=C(O)NC(=O)c1cc([N+](=O)[O-])ccc1COC1CCCCO1 (stereo not given)	%	2.55
C=C(C)C(C(=O)OCC)C(=O)OCC	%	7.4

====

- procedure_summary: NCI Yeast Anticancer Drug Screen. Data for the cln2 rad14 strain (AID 165);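 note: 0% = growth equal to vehicle treated cultures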
- particulars: S. cerevisiae cln2 rad14 strain, stronger effect = higher value; at 50.0 µM unless noted
Compounds without any hit were thinned out: in the full panel of roughly 79,000, 15% have a hit.
The entries below come with measured growth inhibition values attached.
readout_kind: growth inhibition (%)

molecule	readout_kind	measured_value
O=C(O)C(Nc1ccc(Cl)cc1)c1ccccc1 (stereo not drawn)	growth inhibition	6.5
O=C(OCC(OC(=O)c1ccccc1)C1OCOC2COCOC21)c1ccccc1 (stereo not drawn)	growth inhibition	-24.2
O=C1c2ccccc2-c2c1c1ccccc1c(=O)n2-c1ccccc1	growth inhibition	-5.85
CCSC1C(O)C(CO)OC1n1cnc2c(=S)nc[nH]c21 (stereo not drawn)	growth inhibition	2.6
CN1C(=O)OC2OC(C)(c3ccc(S(=O)(=O)c4ccccc4)cc3)C(=O)CC21 (stereo not drawn)	growth inhibition	-27
CC1(C)CC[C@]2(C(=O)O)CCC3(C)C(=CCC4[C@@]5(C)CC[C@H](OC6OCC(O)C(O)C6OC6OC(CO)C(O)C(O)C6O)C(C)(C)C5CC[C@]43C)C2C1 (stereo partly drawn)	growth inhibition	87.7
COc1cc2c(cc1OC)C(Cl)C(c1ccc(Br)cc1)=C2Cl (stereo not drawn)	growth inhibition	48.3
CCC(C)C(NC(=O)Cc1ccccc1)C(=O)O (stereo not drawn)	growth inhibition	-23.2
CCN1CCN(c2nc3ccccc3c3c2CCOc2ccccc2-3)CC1	growth inhibition	19.1
CO[C@H]1C[C@H](n2cc(C)c(=O)[nH]c2=O)O[C@@H]1CO	growth inhibition	-10.7
O=C1/C(=C/c2ccc(Cl)cc2)CCC1CN1CCOCC1 (stereo not drawn)	growth inhibition	92.3
c1ccc(N=NC2(c3ccccc3)CC(c3ccccc3)=NN(c3ccccc3)C2NNc2ccccc2)cc1 (stereo not drawn)	growth inhibition	17.7
COc1ccc(/C(=C(/c2ccc(OC)cc2)C2CC2)C2CC2)cc1	growth inhibition	-14.8
NC(N)=NS(=O)(=O)c1ccc(N=NC2=C(O)C(c3ccccc3)N(c3ccccc3)C2=O)cc1 (stereo not drawn)	growth inhibition	0.3
Cc1ccc(N(C)S(=O)(=O)c2ccccc2)cc1	growth inhibition	4.25
NC(=O)OCCOC(N)=O	growth inhibition	-9.95
OC(CCN1CC2CCC(CC2)C1)(Cc1ccccc1)c1cccs1 (stereo not drawn)	growth inhibition	11.2
COc1ccc(NC(=S)N/N=C(\C)c2ccccn2)cc1	growth inhibition	35.4
O=NNc1ccc(S(=O)(=O)c2ccc3ccccc3c2)cn1	growth inhibition	-8.95
Clc1ccc(-c2c(C3=NCCCN3)nnn2-c2ccc(Cl)cc2)cc1	growth inhibition	11.7
CC1=C(C(=O)Nc2ccccc2)C(c2ccccc2Cl)C(C(=O)Nc2ccccc2)=C(C)N1	growth inhibition	14.4
CC(C)(O)C(O)c1ccccc1 (stereo not drawn)	growth inhibition	2.3
COC(=O)C(=O)c1c(C(=O)OC)nc2nnc(N)n2c1-c1cccc([N+](=O)[O-])c1	growth inhibition	17.3
